Sourced from patent US12146004B2

System: Klebsiella pneumoniae
Type: cell-based
Bridge positions count the residues as written; N and C are the ends. Square brackets hold non-standard residues; d marks the D form. Peptide text beside a SMILES is read from it. * marks the point of attachment. X16 = Cc1cc(C)cc(CO[C@@H](CCN)C(=O)*)c1; dCha = N[C@H](CC1CCCCC1)C(=O)O; Dab = NCC[C@H](N)C(=O)O; Dap = NC[C@H](N)C(=O)O

COMPOUND | READING UNIT | MIC K. pneumoniae 063
Cc1cc(C)cc(CO[C@@H](CCN)C(=O)N[C@H](C(=O)N[C@@H](CN)C(=O)N[C@H]2CCNC(=O)[C@H]([C@@H](C)O)NC(=O)[C@H](CCN)NC(=O)[C@H](CCN)NC(=O)[C@H](CC(C)C)NC(=O)[C@@H](CC3CCCCC3)NC(=O)[C@H](CCN)NC2=O)[C@@H](C)O)c1 [Example 90] (X16-T[Dap][Dab][Dab][dCha]L[Dab][Dab]T; lactam 3-C) | µg/mL | 64
CC(C)C[C@@H]1NC(=O)[C@@H](CC2CCCCC2)NC(=O)[C@H](CCN)NC(=O)[C@@H](NC(=O)[C@H](CCN)NC(=O)[C@@H](NC(=O)C(CCN)c2cccc(Cl)c2)[C@@H](C)O)CCNC(=O)[C@H]([C@@H](C)O)NC(=O)[C@H](CCN)NC(=O)[C@H](CCN)NC1=O (single isomer, unassigned; isomer 2) [Example 55] | µg/mL | 16
CC(C)Cc1ccc(C[C@H]2NC(=O)[C@H](CCN)NC(=O)[C@@H](NC(=O)[C@H](CN)NC(=O)[C@@H](NC(=O)C3CNCC(CC(C)C)C3)C(C)O)CCNC(=O)[C@H]([C@@H](C)O)NC(=O)[C@H](CCN)NC(=O)[C@H](CCN)NC(=O)[C@H](CC(C)C)NC2=O)cc1 (single isomer, unassigned; isomer 2) [Example 25] | µg/mL | 2
